Items are presented alongside their recorded viability.
method description: H69AR cell proliferation blockers – human, duplicate replicates, primary screen (AID 580);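 note: 100% = mean luminescence of untreated wells and 0% = no signal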
protocol conditions: H69AR lung tumor cells viability, ATP luminescence, 72 h; at 10 µM; active compounds read low
Active and inactive are the calls of the source.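 Rule for the calls: active = viability at or under a set limit in both replicates, limit being median viability minus 3 SD (cut at about 48% in these data, passing the limit was not always enough); inconclusive = at or under the limit in just one replicate; inactive = at or above the limit in both replicates.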

CCOC(=O)c1[nH]c(C)c(C(=O)Nc2ccc(Cl)cc2)c1C | 85.9% (inactive)

I would be grateful if you could share the reported viability for COC(=O)CN1C(=O)C(O)(CC(=O)c2ccc(C)cc2)c2cc(Br)ccc21 (stereo not given) . 81.6% (inactive)

Report viability for "N#CCCN1CCN(S(=O)(=O)c2ccc(S(=O)(=O)NC3CCCCC3)cc2)CC1" please. 100% (inactive)

Quick one: viability of "CCN(CC)CCNC(=O)c1ccc(CS(=O)(=O)c2ccc(Br)cc2)o1" ? 95.9% (inactive)

Item under review: "CCOC(=O)N1CCN(C(=O)c2ccc(CS(=O)(=O)c3ccc(OC)cc3)o2)CC1" . Reported viability? 89.2% (inactive)

Data provenance: PubChem BioAssay
